tested on: human SMAD7 mRNA; assay: Antisense inhibition of human SMAD7 mRNA expression in Hep3B cells by 5-10-5 MOE gapmers, single concentration, electroporation, RT-PCR (Example 1, Study 1 and 2); assay type: cell-based; conditions: Study 2, electroporation with 15,000 nM antisense oligonucleotide, 5-10-5 MOE gapmers targeting SEQ ID NO: 1 and 2
Strand notation (5' to 3'): a small letter for the sugar, then the base; units joined by * are phosphorothioate-linked, units joined directly phosphodiester-linked; [ ] holds rarer units or linkages, { } end groups; capitals alone tell only the bases. e = 2'-O-(2-methoxyethyl) (MOE); [5mC] = 5-methylcytosine; d = 2'-deoxy (DNA)
property.measured: % inhibition of SMAD7 mRNA expression (%)
Just the number in %, nothing appended.

Example substances with recorded % inhibition of SMAD7 mRNA expression:
q: Consider the substance 771572 (antisense e[5mC]*eT*eT*eG*eG*dG*dA*d[5mC]*dT*dG*d[5mC]*dA*dA*dA*d[5mC]*e[5mC]*eT*e[5mC]*eT*e[5mC]) [compound 771572] . State its measured % inhibition of SMAD7 mRNA expression.
a: 37

q: Consider the substance 771566 (antisense eG*eA*e[5mC]*eA*e[5mC]*dA*dA*dA*dA*d[5mC]*dA*dA*dA*dG*dA*eG*e[5mC]*eA*e[5mC]*eG) [compound 771566] . State its measured % inhibition of SMAD7 mRNA expression.
a: 28

q: Consider the substance 771583 (antisense eT*eG*e[5mC]*eT*e[5mC]*d[5mC]*dT*dG*dG*d[5mC]*dA*dG*d[5mC]*dT*dG*e[5mC]*eT*eG*eG*eG) [compound 771583] . State its measured % inhibition of SMAD7 mRNA expression.
a: 57

q: Consider the substance 771646 (antisense eT*eA*eT*eG*eA*dG*dT*dT*dG*dT*dA*dG*dA*dA*dG*eA*eA*eA*eT*eG) [compound 771646] . State its measured % inhibition of SMAD7 mRNA expression.
a: 0

q: Consider the substance 771493 (antisense e[5mC]*eG*eG*eG*e[5mC]*dA*dG*d[5mC]*dT*dG*d[5mC]*dT*dG*dA*dT*eG*eA*eA*e[5mC]*eT) [compound 771493] . State its measured % inhibition of SMAD7 mRNA expression.
a: 17

Proceed to the following item.
q: Consider the substance 771495 (antisense e[5mC]*eT*eA*eG*e[5mC]*d[5mC]*dA*dG*d[5mC]*dA*d[5mC]*dG*dG*dG*d[5mC]*eA*eG*e[5mC]*eT*eG) [compound 771495] . State its measured % inhibition of SMAD7 mRNA expression.
a: 18
